Entries and their IC50 values follow.
target: EGFR L858R/T790M/C797S (Homo sapiens, UniProt P00533, C797S/L858R/T790M); assay: Biochemical EGFR kinase assay (Lance Ultra TR-FRET), triple mutant L858R/T790M/C797S; conditions: IC50 L858R/T790M/C797S (nM) 100 μM ATP, 100 μM ATP
Sequence (P00533 25-1210 T790M/C797S/L858R): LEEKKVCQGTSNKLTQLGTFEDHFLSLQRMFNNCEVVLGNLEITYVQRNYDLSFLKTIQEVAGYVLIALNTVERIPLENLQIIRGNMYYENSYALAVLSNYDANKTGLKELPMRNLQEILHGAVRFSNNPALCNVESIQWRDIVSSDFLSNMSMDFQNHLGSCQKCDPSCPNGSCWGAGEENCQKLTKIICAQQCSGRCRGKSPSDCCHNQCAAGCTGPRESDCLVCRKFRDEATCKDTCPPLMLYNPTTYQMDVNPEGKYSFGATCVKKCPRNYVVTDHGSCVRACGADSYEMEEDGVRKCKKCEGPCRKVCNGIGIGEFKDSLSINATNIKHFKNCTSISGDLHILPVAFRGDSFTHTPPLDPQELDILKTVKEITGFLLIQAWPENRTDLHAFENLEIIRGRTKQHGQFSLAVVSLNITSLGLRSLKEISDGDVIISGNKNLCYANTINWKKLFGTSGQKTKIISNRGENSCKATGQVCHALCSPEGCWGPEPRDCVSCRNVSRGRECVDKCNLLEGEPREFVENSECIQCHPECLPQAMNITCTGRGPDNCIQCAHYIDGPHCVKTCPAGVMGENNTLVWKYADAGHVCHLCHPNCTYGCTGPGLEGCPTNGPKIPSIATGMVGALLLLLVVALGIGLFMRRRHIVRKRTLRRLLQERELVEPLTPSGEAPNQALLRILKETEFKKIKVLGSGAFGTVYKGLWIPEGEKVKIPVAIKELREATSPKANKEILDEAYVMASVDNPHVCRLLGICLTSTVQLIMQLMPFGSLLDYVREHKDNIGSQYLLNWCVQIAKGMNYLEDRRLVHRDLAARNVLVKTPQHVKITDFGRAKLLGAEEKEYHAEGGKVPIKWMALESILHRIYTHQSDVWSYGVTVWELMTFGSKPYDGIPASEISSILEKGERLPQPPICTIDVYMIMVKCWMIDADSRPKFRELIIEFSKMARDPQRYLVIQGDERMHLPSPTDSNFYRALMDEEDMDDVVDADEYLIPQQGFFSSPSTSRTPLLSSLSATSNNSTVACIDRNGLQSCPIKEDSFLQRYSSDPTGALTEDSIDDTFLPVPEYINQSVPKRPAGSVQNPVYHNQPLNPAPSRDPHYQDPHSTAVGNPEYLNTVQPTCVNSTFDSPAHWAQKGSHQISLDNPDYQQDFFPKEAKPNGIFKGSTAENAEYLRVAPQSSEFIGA
State just the number; it will be interpreted in nM.

# COMPOUND, MEASURE UNIT, REPORTED VALUE
rows = [
    ("Cn1ccc(-c2cnc(Nc3ccnc(-c4cnn(S(=O)(=O)C5CC5)c4)n3)cc2NC[C@H]2CC[C@H](O)CC2)n1", "nM", 0.5),
    ("CN1CCN(c2nc(-c3cnc(Nc4ccnc(-c5cnn(S(=O)(=O)C6CC6)c5)n4)cc3N[C@H]3CC[C@@](C)(O)CC3)cs2)CC1", "nM", 1.4),
    ("CN(C)C(=O)C[C@H]1CC[C@@H](Nc2cc(Nc3ccnc(-c4cnn(S(=O)(=O)C5CC5)c4)n3)ncc2-c2ccn(C(F)F)n2)CC1", "nM", 0.4),
]

Input CNC1CCC(Nc2cc(Nc3ccnc(-c4cnn(S(=O)(=O)C5CC5)c4)n3)ncc2-c2ccn(C(F)F)n2)CC1 (stereo not shown) . Output IC50: 0.3

* * *

molecular target: EGFR wildtype (WT) (Homo sapiens); test: Biochemical EGFR kinase assay (Lance Ultra TR-FRET), wildtype; conditions: Km ATP; read-out: IC50 WT (nM) Km ATP
Sequence (P00533 25-1210): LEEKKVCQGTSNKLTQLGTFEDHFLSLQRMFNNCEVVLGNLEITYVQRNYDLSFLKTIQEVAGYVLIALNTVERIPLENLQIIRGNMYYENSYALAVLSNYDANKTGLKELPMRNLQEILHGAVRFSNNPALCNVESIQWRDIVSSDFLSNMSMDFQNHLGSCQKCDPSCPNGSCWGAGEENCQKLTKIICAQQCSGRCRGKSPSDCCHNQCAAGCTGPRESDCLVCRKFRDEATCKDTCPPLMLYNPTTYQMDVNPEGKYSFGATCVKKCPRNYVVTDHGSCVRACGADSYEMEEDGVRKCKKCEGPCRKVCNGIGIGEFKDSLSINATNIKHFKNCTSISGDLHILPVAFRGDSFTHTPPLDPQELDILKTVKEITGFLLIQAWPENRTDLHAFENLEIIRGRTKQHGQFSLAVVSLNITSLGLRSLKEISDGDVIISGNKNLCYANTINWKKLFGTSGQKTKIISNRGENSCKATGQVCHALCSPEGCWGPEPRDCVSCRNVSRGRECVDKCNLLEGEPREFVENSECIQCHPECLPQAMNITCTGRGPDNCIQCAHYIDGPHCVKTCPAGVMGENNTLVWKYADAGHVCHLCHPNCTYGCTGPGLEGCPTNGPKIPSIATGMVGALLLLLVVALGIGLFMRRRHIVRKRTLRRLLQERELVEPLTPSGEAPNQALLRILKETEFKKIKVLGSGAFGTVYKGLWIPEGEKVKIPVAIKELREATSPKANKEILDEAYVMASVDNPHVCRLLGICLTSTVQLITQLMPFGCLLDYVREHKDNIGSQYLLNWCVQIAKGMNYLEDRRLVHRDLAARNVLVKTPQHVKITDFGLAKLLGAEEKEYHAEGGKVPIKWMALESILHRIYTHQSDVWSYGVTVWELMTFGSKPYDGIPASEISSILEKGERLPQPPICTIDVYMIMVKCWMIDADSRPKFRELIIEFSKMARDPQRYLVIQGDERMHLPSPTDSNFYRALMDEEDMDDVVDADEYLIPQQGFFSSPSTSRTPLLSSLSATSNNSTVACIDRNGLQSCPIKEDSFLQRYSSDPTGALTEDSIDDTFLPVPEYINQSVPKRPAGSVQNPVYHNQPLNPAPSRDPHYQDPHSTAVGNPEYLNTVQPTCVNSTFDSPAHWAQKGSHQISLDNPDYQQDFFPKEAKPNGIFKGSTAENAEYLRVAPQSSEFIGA
MEASURE NAME: IC50 (nM)
// units = nM; emit number, no label

Some molecules with recorded IC50:
# MOLECULE, MEASURE UNIT, IC50
rows = [
    ("CNC(=O)[C@H]1CC[C@@H](Nc2cc(Nc3ccnc(-c4cnn(S(=O)(=O)C5CC5)c4)n3)ncc2-c2ccn(C(F)F)n2)CC1 [Example 24]", "nM", 6.9),
    ("Cn1ccc(-c2cnc(Nc3ccnc(-c4cnn(S(=O)(=O)C5CC5)c4)n3)cc2NCC2CCC(C(F)F)CC2)n1 (stereo not shown) [Example 152]", "nM", 85.1),
]

// sample O=S(=O)(C1CC1)n1cc(-c2nccc(Nc3cc(NC4CC(O)C4)c(-c4ccn(C(F)F)n4)cn3)n2)cn1 (stereo not shown) [Example 40] , its IC50 was 36.3

Item: CN(C)S(=O)(=O)n1cc(-c2nccc(Nc3cc(N[C@H]4CC[C@@](C)(O)CC4)c(-c4ccn(C(F)F)n4)cn3)n2)cn1 [Example 317] | IC50: 12.1

* * *

Each entry below carries its recorded IC50.
biological target: EGFR del19/T790M/C797S (Homo sapiens, UniProt P00533, C797S/DEL746-750/T790M); assay: Biochemical EGFR kinase assay (Lance Ultra TR-FRET), triple mutant del19/T790M/C797S; conditions: IC50 del19/T790M/C797S (nM) 100 μM ATP, 100 μM ATP
Sequence (P00533 with tags, fused parts or gaps DEL746-750/T790M/C797S): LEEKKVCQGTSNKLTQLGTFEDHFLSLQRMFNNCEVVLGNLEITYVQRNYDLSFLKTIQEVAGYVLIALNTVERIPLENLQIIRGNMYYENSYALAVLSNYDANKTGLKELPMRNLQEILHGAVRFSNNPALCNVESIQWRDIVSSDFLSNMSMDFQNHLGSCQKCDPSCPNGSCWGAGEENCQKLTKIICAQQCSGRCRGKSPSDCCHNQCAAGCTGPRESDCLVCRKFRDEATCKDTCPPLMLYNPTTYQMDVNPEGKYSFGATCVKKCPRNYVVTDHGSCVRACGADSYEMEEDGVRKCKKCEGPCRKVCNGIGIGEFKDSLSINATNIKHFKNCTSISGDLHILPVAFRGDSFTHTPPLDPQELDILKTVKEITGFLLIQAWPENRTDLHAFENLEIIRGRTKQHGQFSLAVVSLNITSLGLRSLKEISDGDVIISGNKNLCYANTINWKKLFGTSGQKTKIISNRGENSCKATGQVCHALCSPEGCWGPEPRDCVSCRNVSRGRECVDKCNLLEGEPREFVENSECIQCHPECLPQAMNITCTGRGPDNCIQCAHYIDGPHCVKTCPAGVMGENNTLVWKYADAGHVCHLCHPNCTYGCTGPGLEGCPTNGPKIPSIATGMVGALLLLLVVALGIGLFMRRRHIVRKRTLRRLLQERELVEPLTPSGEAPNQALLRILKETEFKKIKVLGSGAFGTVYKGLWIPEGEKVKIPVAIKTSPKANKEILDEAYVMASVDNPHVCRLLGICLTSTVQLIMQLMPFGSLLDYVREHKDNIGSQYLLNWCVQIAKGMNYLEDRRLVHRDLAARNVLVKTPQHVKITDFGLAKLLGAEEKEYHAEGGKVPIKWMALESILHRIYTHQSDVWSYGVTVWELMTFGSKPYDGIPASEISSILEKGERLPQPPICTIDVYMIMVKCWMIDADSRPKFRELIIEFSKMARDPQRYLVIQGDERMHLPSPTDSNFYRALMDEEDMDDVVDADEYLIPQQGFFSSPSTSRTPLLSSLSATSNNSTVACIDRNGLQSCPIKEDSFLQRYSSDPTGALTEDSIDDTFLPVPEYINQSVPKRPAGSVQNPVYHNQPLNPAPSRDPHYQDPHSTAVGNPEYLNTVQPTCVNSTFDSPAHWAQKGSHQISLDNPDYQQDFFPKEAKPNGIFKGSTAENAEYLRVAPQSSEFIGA
Give the value, in units of nM, as a plain number.

Here is how some molecules turned out for IC50.
# MOLECULE, IC50 / nM
rows = [
    ("COc1ncc(-c2nccc(Nc3cc(N[C@H]4CC[C@@](C)(O)CC4)c(-c4ccn(C(F)F)n4)cn3)n2)cn1 [Example 312]", 2.4),
    ("O=S(=O)(C1CC1)n1cc(-c2nccc(Nc3cc(N[C@H]4CC[C@@H](CN5CCC5)CC4)c(-c4ccn(C(F)F)n4)cn3)n2)cn1 [Example 208]", 0.3),
]

Alright, here's another molecule for you.
Lab note: O=S(=O)(C1CC1)n1cc(-c2nccc(Nc3cc(N[C@H]4CC[C@@H](NCCF)CC4)c(-c4nc(C(F)F)cs4)cn3)n2)cn1 [Example 123] gave IC50 of 0.2
